Origin of the recorded values: ChEMBL document CHEMBL1131142

MEASURED_TARGET: Aldo-keto reductase family 1 member B1 (Sus scrofa, UniProt P80276)
REPORTED_PROPERTY: pIC50
Give bare numbers, as −log10 of the molar value.

Batch request: pIC50 per item, same order as input.
1. CN(CC(=O)O)C(=O)c1ccc[nH]1
2. CN1CC(=O)n2cccc2C1=O
3. O=C1CC2(C(=O)N1)C(=O)N(Cc1cccc(Cl)c1)C(=O)c1cccn12 (stereo unspecified)
4. O=C(O)CCC1C(=O)N(Cc2ccc(Cl)c(Cl)c2)C(=O)c2cccn21 (stereo unspecified)
5. O=C(O)CC1C(=O)N(Cc2ccc(Br)cc2F)C(=O)c2cccn21 (stereo unspecified)

Output:
5.30
5.12
7.46
6.88
6.78

Batch request: pIC50 per item, same order as input.
1. O=C1CC2(C(=O)N1)C(=O)NC(=O)c1cccn12 (stereo unspecified)
2. O=C(O)CC1C(=O)N(Cc2ccc(Cl)c(Cl)c2)C(=O)c2cccn21 (stereo unspecified)
3. O=C1CC2(C(=O)N1)C(=O)N(Cc1ccccc1Cl)C(=O)c1cccn12 (stereo unspecified)
4. O=C1CC2(C(=O)N1)C(=O)N(Cc1ccc(Cl)cc1)C(=O)c1cccn12 (stereo unspecified)

Output:
1: 6.20; 2: 6.88; 3: 7.43; 4: 7.42
